Documented GI50 across a set of compounds
Tested on: K562
Assay: Tested for the inhibitory concentration against cell growth of human leukemic cell line K562
Assay type: functional

Worked cases, GI50 given:
* C/C(=N/N=C(/S)N/N=C(\S)c1ccc(Cl)cc1Cl)C12CC3CC(CC(C3)C1)C2 | 24.7 µM
* S=C(N/N=C(/c1ccccn1)C12CC3CC(CC(C3)C1)C2)NNC(=S)c1ccc(Cl)cc1 | 100 µM
* C/C(=N/N=C(/S)NN)C12CC3CC(CC(C3)C1)C2 | 14.7 µM
* C/C(=N/N=C(\N)S)C12CC3CC(CC(C3)C1)C2 | 2.8 µM
* CC[C@]1(O)C[C@@H]2CN(CCc3c([nH]c4ccccc34)[C@@](C(=O)OC)(c3cc4c(cc3OC)N(C)[C@H]3[C@@](O)(C(=O)OC)[C@H](OC(C)=O)[C@]5(CC)C=CCN6CC[C@]43[C@@H]65)C2)C1 | < 0.00025 µM
* N/N=C(\S)N/N=C(/c1ccccn1)C12CC3CC(CC(C3)C1)C2 | 41.7 µM
* S=C(N/N=C(/c1ccccn1)C12CC3CC(CC(C3)C1)C2)NNC(=S)c1ccc(Cl)cc1Cl | 100 µM

Recorded GI50 for C/C(=N/N=C(/S)N/N=C(\S)c1ccc(Cl)cc1)C12CC3CC(CC(C3)C1)C2 , please?
100 µM

* * *

Catalogue of compounds with associated MIC
System: E6SM
Experiment: Tested for antiviral activity against thymidine kinase-deficient (TK-HSV-2G) virus in E6SM cell line(human embryonic skin-muscle fibroblasts)
Format: functional

Past entries and their recorded results:
- C/C(=N/N=C(/S)N/N=C(\S)c1ccc(Cl)cc1Cl)C12CC3CC(CC(C3)C1)C2: 9.6 µg/mL
- N/C(S)=N\N=C(\c1ccccn1)C12CC3CC(CC(C3)C1)C2: > 400 µg/mL
- C/C(=N/N=C(/S)N/N=C(\S)c1ccc(Cl)cc1)C12CC3CC(CC(C3)C1)C2: > 40 µg/mL
- Nc1nc2c(ncn2COCCO)c(=O)[nH]1: 0.08 µg/mL

# MIC lookup, item C/C(=N/N=C(/S)NN)C12CC3CC(CC(C3)C1)C2
> 16 µg/mL

Entry O=c1[nH]c(=O)n([C@H]2C[C@H](O)[C@@H](CO)O2)cc1/C=C/Br has what MIC?
80 µg/mL

Recorded MIC of Nc1nc2c(ncn2COC(CO)CO)c(=O)[nH]1 , please.
0.019 µg/mL

* * *

System: Escherichia coli
Experiment: Tested for the antimicrobial activity against Escherichia coli ATCC 25922
Assay type: functional
Quantity: MIC

* C/C(=N/N=C(/S)N/N=C(\S)c1ccc(Cl)cc1)C12CC3CC(CC(C3)C1)C2 | > 2300 µg/mL
* C/C(=N/N=C(/S)N/N=C(\S)c1ccc(Cl)cc1Cl)C12CC3CC(CC(C3)C1)C2 | > 2130 µg/mL

Looking for the measured MIC of N/N=C(\S)N/N=C(/c1ccccn1)C12CC3CC(CC(C3)C1)C2 , can you help?
> 3040 µg/mL

Give the measured MIC of C/C(=N/N=C(\N)S)C12CC3CC(CC(C3)C1)C2 .
> 3980 µg/mL

Looking for the measured MIC of S=C(N/N=C(/c1ccccn1)C12CC3CC(CC(C3)C1)C2)NNC(=S)c1ccc(Cl)cc1 , can you help?
> 2000 µg/mL

Returns the measured MIC for the input compound. Input: S=C(N/N=C(/c1ccccn1)C12CC3CC(CC(C3)C1)C2)NNC(=S)c1ccc(Cl)cc1Cl
> 1880 µg/mL

// lookup MIC for C/C(=N/N=C(/S)NN)C12CC3CC(CC(C3)C1)C2
> 3760 µg/mL

// query MIC value for entry N/C(S)=N\N=C(\c1ccccn1)C12CC3CC(CC(C3)C1)C2
> 3180 µg/mL

Data credit: ChEMBL document CHEMBL1135216
